Measured enrichment ratio of individual entries
B1: PhoQ; a variant is named by its letters at X, in order, P23837 (parent)
chain: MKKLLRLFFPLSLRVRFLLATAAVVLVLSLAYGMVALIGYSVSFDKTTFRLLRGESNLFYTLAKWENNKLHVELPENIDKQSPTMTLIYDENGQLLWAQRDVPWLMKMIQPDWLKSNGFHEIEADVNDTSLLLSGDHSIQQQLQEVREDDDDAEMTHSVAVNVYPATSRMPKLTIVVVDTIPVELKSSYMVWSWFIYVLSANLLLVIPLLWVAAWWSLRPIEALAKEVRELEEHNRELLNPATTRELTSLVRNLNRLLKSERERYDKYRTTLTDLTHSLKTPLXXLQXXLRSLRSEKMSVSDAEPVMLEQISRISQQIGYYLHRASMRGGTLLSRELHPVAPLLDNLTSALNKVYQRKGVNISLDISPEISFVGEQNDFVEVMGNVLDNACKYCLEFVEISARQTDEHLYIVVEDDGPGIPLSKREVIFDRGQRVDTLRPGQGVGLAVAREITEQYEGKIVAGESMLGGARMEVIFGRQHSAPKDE

- Variants of: B1
- method-summary: enrichment ratio after two sorts for PhoP signalling (ratio (wild type AVST 3.29)); higher = more functional
- details: with PhoP (E. coli)
Over roughly 140,000 sequences, “enrichment ratio after two sorts for PhoP signalling” has its median near 0; the highest 2% begin near 11. Only a selection was taken, and the highest values are over-represented in it overall.

Lookup result for NESY ; measured enrichment ratio: ≤ 0.25

Values compiled from a collection of fitness landscapes (doi:10.1126/science.1257360).
